The reported measurements were obtained from patent US12144864B2.

Test system: H69AR cells
Assay: Cytotoxicity in panel of MDR cell lines, H69AR (72 h and 144 h)
Format: cell-based, human
Details: 144 h incubation
Non-standard residues stand in square brackets, D forms with d. Residues, ends and D or L forms follow the SMILES beside them. *: point of attachment. Dolaproine = CO[C@@H]([C@@H]1CCCN1)[C@@H](C)C(=O)O; Dil = CC[C@H](C)[C@H](NC)[C@@H](CC(=O)O)OC; X1 = C[C@@H](N*)[C@@H](O)c1ccccc1; NMeV = CN[C@H](C(=O)O)C(C)C
Below, each entry is listed with its recorded H69AR % Kill 144 h.
Could you give me the number in %? Just the number is fine.

{"compound": "CCCCCCON(C(=O)[C@@H](NC(=O)[C@H]1CCCCN1C)[C@@H](C)CC)[C@H](C[C@@H](OC(=O)NC)c1nc(C(=O)N[C@@H](Cc2ccc(O)cc2)C[C@H](C)C(=O)O)cs1)C(C)C [VIa]", "unit_string": "%", "numeric_readout": 91.6}

Let us move to another entry and its H69AR % Kill 144 h.
Prompt line: Item CC[C@H](C)[C@@H]([C@@H](CC(=O)N1CCC[C@H]1[C@H](OC)[C@@H](C)C(=O)N[C@H](C)[C@@H](O)c1ccccc1)OC)N(C)C(=O)[C@@H](NC(=O)[C@@H](NC)C(C)C)C(C)C [MMAE, Monomethyl auristatin E, reference compound] (H-[NMeV]V[Dil][Dolaproine]-X1) has what recorded H69AR % Kill 144 h?
Response line: 92.7

====

Below, each entry is listed with its recorded H69AR % Kill 144 h.
Test system: H69AR cells
Assay: Cytotoxicity in panel of MDR cell lines, H69AR (72 h and 144 h)
Assay type: cell-based, human
Settings: 144 h incubation
Could you give me the number in %? Just the number is fine.

{"molecule": "C#CCCCCN(C(=O)[C@@H](NC(=O)[C@H]1CCCCN1C)[C@@H](C)CC)[C@H](C[C@@H](OC(C)=O)c1nc(C(=O)N[C@@H](Cc2ccc(N)cc2)C[C@H](C)C(=O)O)cs1)C(C)C [IVg]", "H69AR % Kill 144 h / %": 99.2}
{"molecule": "CCCCCCN(C(=O)[C@@H](NC(=O)[C@H]1CCCCN1C)[C@@H](C)CC)[C@H](C[C@@H](OC(C)=O)c1nc(C(=O)NC(Cc2ccc(N)c(O)c2)CC(C)(C)C(=O)O)cs1)C(C)C (stereo partly shown) [IVx]", "H69AR % Kill 144 h / %": 38}
{"molecule": "C#CCCCON(C(=O)[C@@H](NC(=O)[C@H]1CCCCN1C)[C@@H](C)CC)[C@H](C[C@@H](OC(C)=O)c1nc(C(=O)N[C@@H](Cc2ccc(N)cc2)CC(C)(C)C(=O)O)cs1)C(C)C [Ve]", "H69AR % Kill 144 h / %": 99.5}
{"molecule": "[2H]c1cc(C[C@@H](CC(C)(C)C(=O)O)NC(=O)c2csc([C@@H](C[C@H](C(C)C)N(CCCCCC)C(=O)[C@@H](NC(=O)[C@H]3CCCCN3C)[C@@H](C)CC)OC(C)=O)n2)cc([2H])c1N [IVs]", "H69AR % Kill 144 h / %": 99.4}
{"molecule": "C#CCCCCN(C(=O)[C@@H](NC(=O)[C@H]1CCCCN1C)[C@@H](C)CC)[C@H](C[C@@H](OC(C)=O)c1nc(C(=O)N[C@@H](Cc2ccc(O)cc2)C[C@H](C)C(=O)O)cs1)C(C)C [IVf]", "H69AR % Kill 144 h / %": 98.9}
{"molecule": "C#CCCCON(C(=O)[C@@H](NC(=O)[C@H]1CCCCN1C)[C@@H](C)CC)[C@H](C[C@@H](OC(C)=O)c1nc(C(=O)N[C@@H](Cc2ccc(N)cc2)C[C@H](C)C(=O)O)cs1)C(C)C [Vh]", "H69AR % Kill 144 h / %": 98.4}
{"molecule": "CCCCCCN(C(=O)[C@@H](NC(=O)[C@H]1CCCCN1C)[C@@H](C)CC)[C@H](C[C@@H](OC(C)=O)c1nc(C(=O)N[C@@H](Cc2ccc(N)cc2)CC(C)(C)C(=O)O)cs1)C(C)C [IVq]", "H69AR % Kill 144 h / %": 99.5}
{"molecule": "C#CCCCCN(C(=O)[C@@H](NC(=O)[C@H]1CCCCN1C)[C@@H](C)CC)[C@H](C[C@@H](OC(C)=O)c1nc(C(=O)N[C@@H](Cc2ccc(F)cc2)C[C@H](C)C(=O)O)cs1)C(C)C [IVe]", "H69AR % Kill 144 h / %": 99}
{"molecule": "CCCCCON(C(=O)[C@@H](NC(=O)[C@H]1CCCCN1C)[C@@H](C)CC)[C@H](C[C@@H](OC(C)=O)c1nc(C(=O)N[C@@H](Cc2ccc(N)cc2)CC(C)(C)C(=O)O)cs1)C(C)C [Vb]", "H69AR % Kill 144 h / %": 99.4}

Let us move to another entry and its H69AR % Kill 144 h.
Prompt line: Item CCCCCCN(C(=O)[C@@H](NC(=O)[C@H]1CCCCN1C)[C@@H](C)CC)[C@H](C[C@@H](OC(C)=O)c1nc(C(=O)NC(Cc2ccc(F)c(NC)c2)CC(C)(C)C(=O)O)cs1)C(C)C (stereo partly shown) [IVt] has what recorded H69AR % Kill 144 h?
Response line: 99.3
